# Target of assay: cIAP2-BIR2 (Homo sapiens (Human))
# Assay name: BIR binding assay (FRET competition), cIAP2 BIR2
pIC50: −log10 of the molar value.
Listing: pIC50 of selected molecules
Assay endpoint: pIC50

structure_smiles=C[C@@H]1CN(CC(=O)N2CC(C)(C)c3[nH]c(=O)c(Cc4ccc(F)cc4)cc32)[C@@H](CN2CCC(COc3cccc(OCC4CCN(C[C@H]5CN[C@H](C)CN5CC(=O)N5CC(C)(C)c6[nH]c(=O)c(Cc7ccc(F)cc7)cc65)CC4)c3)CC2)CN1 assay_endpoint=pIC50 experimental_result="4.29 to 5.00"
structure_smiles=C[C@@H]1CN(CC(=O)N2CC(C)(C)c3[nH]c(=O)c(Cc4ccc(F)cc4)cc32)[C@@H](CN2CCO[C@H](C(=O)NCCOCCOCCOCCNC(=O)[C@@H]3CN(C[C@H]4CN[C@H](C)CN4CC(=O)N4CC(C)(C)c5[nH]c(=O)c(Cc6ccc(F)cc6)cc54)CCO3)C2)CN1 assay_endpoint=pIC50 experimental_result="5.50 to 6.00"
structure_smiles=C[C@@H]1CN(CC(=O)N2CC(C)(C)c3[nH]c(=O)c(Cc4ccc(F)cc4)cc32)[C@@H](CN2CCO[C@H](C(=O)N(C)CC3CCN(C(=O)[C@@H]4CN(C[C@H]5CN[C@H](C)CN5CC(=O)N5CC(C)(C)c6[nH]c(=O)c(Cc7ccc(F)cc7)cc65)CCO4)CC3)C2)CN1 assay_endpoint=pIC50 experimental_result="5.50 to 6.00"
structure_smiles=C[C@@H]1CN(CC(=O)N2CC(C)(C)c3[nH]c(=O)c(Cc4c(F)cc(F)cc4F)cc32)[C@@H](CN2CCO[C@H](COc3cccc(OC[C@@H]4CN(C[C@H]5CN[C@H](C)CN5CC(=O)N5CC(C)(C)c6[nH]c(=O)c(Cc7c(F)cc(F)cc7F)cc65)CCO4)c3)C2)CN1 assay_endpoint=pIC50 experimental_result="5.50 to 6.00"

====

# Target of assay: XIAP-BIR3 (Homo sapiens (Human))
# Assay name: BIR binding assay (FRET competition), XIAP BIR3
# Experimental parameters: fold separation (FS) for XIAP
Assay endpoint: XIAP BIR3 vs BIR2 separation window

structure_smiles=C[C@@H]1CN(CC(=O)N2CC(C)(C)c3[nH]c(=O)c(Cc4ccc(F)cc4)cc32)[C@@H](CN2CCO[C@H](COc3cccc(OC[C@@H]4CN(C[C@H]5CN[C@H](C)CN5CC(=O)N5CC(C)(C)c6[nH]c(=O)c(Cc7ccc(F)cc7)cc65)CCO4)c3Cl)C2)CN1 experimental_result="++++ (FS>10,000)"
structure_smiles=C[C@@H]1CN(CC(=O)N2CC(C)(C)c3[nH]c(=O)c(Cc4ccc(F)cc4F)cc32)[C@@H](CN2CCO[C@H](C(=O)NCc3ccc(CNC(=O)[C@@H]4CN(C[C@H]5CN[C@H](C)CN5CC(=O)N5CC(C)(C)c6[nH]c(=O)c(Cc7ccc(F)cc7F)cc65)CCO4)cc3)C2)CN1 experimental_result="++++ (FS>10,000)"

====

# Target of assay: cIAP2-BIR3 (Homo sapiens (Human), UniProt Q13489)
# Sequence (Q13489 238-349): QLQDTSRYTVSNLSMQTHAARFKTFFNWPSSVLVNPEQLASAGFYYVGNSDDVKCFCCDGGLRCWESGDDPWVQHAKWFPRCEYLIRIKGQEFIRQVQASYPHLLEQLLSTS
# Assay name: BIR binding assay (FRET competition), cIAP2 BIR3
# Experimental parameters: fold separation (FS) for cIAP2
Assay endpoint: cIAP2 BIR3 vs BIR2 separation window

molecule="COC(=O)c1cc(F)ccc1Cc1cnc2c(c1)N(C(=O)CN1C[C@@H](C)NC[C@@H]1CN1CCO[C@H](COc3cccc(OC[C@@H]4CN(C[C@H]5CN[C@H](C)CN5CC(=O)N5CC(C)(C)c6ncc(Cc7ccc(F)cc7C(=O)OC)cc65)CCO4)c3)C1)CC2(C)C [Compound 152]" experimental_result="+++ (10,000>FS>1,000)"
molecule="C[C@@H]1CN(CC(=O)N2CC(C)(C)c3[nH]c(=O)c(Cc4ccc(F)cc4)cc32)[C@@H](CN2CCC(CC(=O)N(C)Cc3ccc(CN(C)C(=O)CC4CCN(C[C@H]5CN[C@H](C)CN5CC(=O)N5CC(C)(C)c6[nH]c(=O)c(Cc7ccc(F)cc7)cc65)CC4)cc3)CC2)CN1 [Example 106]" experimental_result="+++ (10,000>FS>1,000)"

====

# Target of assay: cIAP2-BIR2 (Homo sapiens (Human), UniProt Q13489)
# Sequence (Q13489 158-242): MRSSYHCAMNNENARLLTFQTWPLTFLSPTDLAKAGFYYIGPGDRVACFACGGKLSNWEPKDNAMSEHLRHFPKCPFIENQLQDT
# Assay name: BIR binding assay (FRET competition), cIAP2 BIR2
Assay endpoint: IC50

structure_smiles=C[C@@H]1CN(CC(=O)N2CC(C)(C)c3[nH]c(=O)c(Cc4ccc(F)cc4)cc32)[C@@H](CN2CCN(Cc3c(F)c(F)c(CN4CCN(C[C@H]5CN[C@H](C)CN5CC(=O)N5CC(C)(C)c6[nH]c(=O)c(Cc7ccc(F)cc7)cc65)[C@H](C)C4)c(F)c3F)C[C@H]2C)CN1 target_of_assay="cIAP2-BIR2 (Homo sapiens (Human), UniProt Q13489)" experimental_result="3.16 to 10 µM"
structure_smiles=C[C@@H]1CN(CC(=O)N2CC(C)(C)c3[nH]c(=O)c(Cc4ccc(F)cc4)cc32)[C@@H](CN2CCO[C@H](COCCOCCOC[C@@H]3CN(C[C@H]4CN[C@H](C)CN4CC(=O)N4CC(C)(C)c5[nH]c(=O)c(Cc6ccc(F)cc6)cc54)CCO3)C2)CN1 target_of_assay="cIAP2-BIR2 (Homo sapiens (Human), UniProt Q13489)" experimental_result="3.16 to 10 µM"
structure_smiles=C[C@@H]1CN(CC(=O)N2CC(C)(C)c3[nH]c(=O)c(Cc4ccc(F)cc4)cc32)[C@@H](CN2CCO[C@H](C(=O)N[C@H]3CC[C@H](NC(=O)[C@@H]4CN(C[C@H]5CN[C@H](C)CN5CC(=O)N5CC(C)(C)c6[nH]c(=O)c(Cc7ccc(F)cc7)cc65)CCO4)CC3)C2)CN1 target_of_assay="cIAP2-BIR2 (Homo sapiens (Human), UniProt Q13489)" experimental_result="1 to 3.16 µM"
structure_smiles=C[C@@H]1CN(CC(=O)N2CC(C)(C)c3[nH]c(=O)c(Cc4ccc(F)cc4)cc32)[C@@H](CN2CCN(C(=O)c3ccnc(-c4cc(C(=O)N5CCN(C[C@H]6CN[C@H](C)CN6CC(=O)N6CC(C)(C)c7[nH]c(=O)c(Cc8ccc(F)cc8)cc76)[C@H](C)C5)ccn4)c3)C[C@H]2C)CN1 target_of_assay="cIAP2-BIR2 (Homo sapiens (Human), UniProt Q13489)" experimental_result="1 to 3.16 µM"
structure_smiles=C[C@@H]1CN(CC(=O)N2CC(C)(C)c3[nH]c(=O)c(Cc4cc(F)c(F)cc4F)cc32)[C@@H](CN2CCO[C@H](C(=O)NCc3ccc(CNC(=O)[C@@H]4CN(C[C@H]5CN[C@H](C)CN5CC(=O)N5CC(C)(C)c6[nH]c(=O)c(Cc7cc(F)c(F)cc7F)cc65)CCO4)cc3)C2)CN1 target_of_assay="cIAP2-BIR2 (Homo sapiens (Human), UniProt Q13489)" experimental_result="3.16 to 10 µM"
structure_smiles=C[C@@H]1CN(CC(=O)N2CC(C)(C)c3[nH]c(=O)c(Cc4ccc(F)cc4)cc32)[C@@H](CN2CCO[C@H](C(=O)NCCN3CCN(C(=O)[C@@H]4CN(C[C@H]5CN[C@H](C)CN5CC(=O)N5CC(C)(C)c6[nH]c(=O)c(Cc7ccc(F)cc7)cc65)CCO4)CC3)C2)CN1 target_of_assay="cIAP2-BIR2 (Homo sapiens (Human), UniProt Q13489)" experimental_result="1 to 3.16 µM"
structure_smiles=C[C@@H]1CN(CC(=O)N2CC(C)(C)c3[nH]c(=O)c(Cc4ccc(F)cc4)cc32)[C@@H](CN2CCN(C(=O)c3ccc(/C=C/c4ccc(C(=O)N5CCN(C[C@H]6CN[C@H](C)CN6CC(=O)N6CC(C)(C)c7[nH]c(=O)c(Cc8ccc(F)cc8)cc76)[C@H](C)C5)cc4)cc3)C[C@H]2C)CN1 target_of_assay="cIAP2-BIR2 (Homo sapiens (Human), UniProt Q13489)" experimental_result="0.0224 to 1 µM"

====

Listing: IC50 of selected compounds
# Target of assay: XIAP-BIR3 (Homo sapiens (Human), UniProt P98170)
# Sequence (P98170 241-356): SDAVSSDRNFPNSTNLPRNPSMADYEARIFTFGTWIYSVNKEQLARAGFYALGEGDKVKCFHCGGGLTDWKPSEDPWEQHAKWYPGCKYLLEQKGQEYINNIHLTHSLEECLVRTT
# Assay name: BIR binding assay (FRET competition), XIAP BIR3
Assay endpoint: IC50

compound="C[C@@H]1CN(CC(=O)N2CC(C)(C)c3[nH]c(=O)c(Cc4ccc(F)cc4)cc32)[C@@H](CN2CCO[C@H](COc3ccc(F)c(OC[C@@H]4CN(C[C@H]5CN[C@H](C)CN5CC(=O)N5CC(C)(C)c6[nH]c(=O)c(Cc7ccc(F)cc7)cc65)CCO4)c3)C2)CN1 [Example 75]" target_of_assay="XIAP-BIR3 (Homo sapiens (Human), UniProt P98170)" experimental_result="1.38 to 7.94 nM"
compound="C[C@@H]1CN(CC(=O)N2CC(C)(C)c3[nH]c(=O)c(Cc4ccc(F)cc4)cc32)[C@@H](CN2CCC(CCOc3cccc(OCCC4CCN(C[C@H]5CN[C@H](C)CN5CC(=O)N5CC(C)(C)c6[nH]c(=O)c(Cc7ccc(F)cc7)cc65)CC4)c3)CC2)CN1 [Example 108]" target_of_assay="XIAP-BIR3 (Homo sapiens (Human), UniProt P98170)" experimental_result="31.6 to 501 nM"
compound="C[C@@H]1CN(CC(=O)N2CC(C)(C)c3[nH]c(=O)c(Cc4ccc(F)cc4)cc32)[C@@H](CN2CCO[C@H](COc3ccccc3Oc3ccccc3OC[C@@H]3CN(C[C@H]4CN[C@H](C)CN4CC(=O)N4CC(C)(C)c5[nH]c(=O)c(Cc6ccc(F)cc6)cc54)CCO3)C2)CN1 [Example 68]" target_of_assay="XIAP-BIR3 (Homo sapiens (Human), UniProt P98170)" experimental_result="7.94 to 15.8 nM"
compound="C[C@@H]1CN(CC(=O)N2CC(C)(C)c3[nH]c(=O)c(Cc4ccc(F)cc4)cc32)[C@@H](CN2CCO[C@H](COCc3cccc(COC[C@@H]4CN(C[C@H]5CN[C@H](C)CN5CC(=O)N5CC(C)(C)c6[nH]c(=O)c(Cc7ccc(F)cc7)cc65)CCO4)n3)C2)CN1 [Example 84]" target_of_assay="XIAP-BIR3 (Homo sapiens (Human), UniProt P98170)" experimental_result="15.8 to 31.6 nM"
compound="Cc1cc(Cl)ccc1Cc1cc2c([nH]c1=O)C(C)(C)CN2C(=O)CN1C[C@@H](C)NC[C@@H]1CN1CCO[C@H](C(=O)NCc2ccc(CNC(=O)[C@@H]3CN(C[C@H]4CN[C@H](C)CN4CC(=O)N4CC(C)(C)c5[nH]c(=O)c(Cc6ccc(Cl)cc6C)cc54)CCO3)cc2)C1 [Compound 168]" target_of_assay="XIAP-BIR3 (Homo sapiens (Human), UniProt P98170)" experimental_result="31.6 to 501 nM"
compound="C[C@@H]1CN(CC(=O)N2CC(C)(C)c3[nH]c(=O)c(Cc4ccc(Cl)cc4C(=O)N(C)C)cc32)[C@@H](CN2CCO[C@H](C(=O)NCc3ccc(CNC(=O)[C@@H]4CN(C[C@H]5CN[C@H](C)CN5CC(=O)N5CC(C)(C)c6[nH]c(=O)c(Cc7ccc(Cl)cc7C(=O)N(C)C)cc65)CCO4)cc3)C2)CN1 [Compound 172]" target_of_assay="XIAP-BIR3 (Homo sapiens (Human), UniProt P98170)" experimental_result="31.6 to 501 nM"
compound="C[C@@H]1CN(CC(=O)N2CC(C)(C)c3[nH]c(=O)c(Cc4ccccc4)cc32)[C@@H](CN2CCO[C@H](C(=O)NCc3ccc(CNC(=O)[C@@H]4CN(C[C@H]5CN[C@H](C)CN5CC(=O)N5CC(C)(C)c6[nH]c(=O)c(Cc7ccccc7)cc65)CCO4)cc3)C2)CN1 [Compound 186]" target_of_assay="XIAP-BIR3 (Homo sapiens (Human), UniProt P98170)" experimental_result="15.8 to 31.6 nM"
